experiment: NCI Yeast Anticancer Drug Screen. Data for the mec2-1 strain (AID 157); settings: S. cerevisiae mec2-1 strain, at 100.0 µM
This is part of a sample that, as a whole, favours compounds with a hit. Of some 79,000 tested, about 15% had one in any assay. Calls of active or inactive are those of the source. Cut-off read from the data, not from the text of the source: active = growth inhibition above about 70%; inactive = the rest.
Classes used: active, inactive

molecule: O=C(C#Cc1ccccc1)Nc1ccccc1
class-label: active

molecule: CCC(OC(C)=O)C1CC(C(C)C)CCC1C (stereo unspecified)
class-label: active

molecule: CC(C)C(=O)CC(Sc1ccc(N)cc1)c1ccccc1 (stereo unspecified)
class-label: inactive

molecule: Cc1c2c(nc3ccccc13)C(=O)c1cccnc1C2=O
class-label: active

molecule: COC1=CCC23C(=O)C=CC(=O)C2(C1)C(=O)c1ccccc1C3=O (stereo unspecified)
class-label: active

molecule: C/C(=N\OCC(O)CNCCSCc1ccccc1)c1ccccc1Cl (stereo unspecified)
class-label: active
